meta.source: ChEMBL document CHEMBL1147793

Target: UniProt:P50130
Sequence (P50130 whole entry): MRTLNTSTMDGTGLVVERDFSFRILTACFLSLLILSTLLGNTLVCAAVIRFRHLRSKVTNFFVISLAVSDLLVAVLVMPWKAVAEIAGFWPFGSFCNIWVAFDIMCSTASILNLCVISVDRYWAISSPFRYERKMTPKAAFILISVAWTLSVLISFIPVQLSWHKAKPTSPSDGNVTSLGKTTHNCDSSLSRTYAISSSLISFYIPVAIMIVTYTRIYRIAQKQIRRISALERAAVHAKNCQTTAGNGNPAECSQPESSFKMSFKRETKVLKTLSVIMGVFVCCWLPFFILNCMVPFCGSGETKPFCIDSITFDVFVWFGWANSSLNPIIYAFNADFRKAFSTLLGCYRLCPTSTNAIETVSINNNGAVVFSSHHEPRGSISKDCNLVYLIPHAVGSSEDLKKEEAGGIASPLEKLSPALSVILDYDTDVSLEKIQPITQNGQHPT
Assay: Displacement of [3H]SCH-23390 from dopamine D1 receptor in porcine striatal membrane
pKi: −log10 of the molar value.
Label true (1) when pKi is at or above 5; anything below gets false (0).

Some solved cases for reference:
{"Smiles Notation": "c1ccc(N2CCN(Cc3cnn(-c4ccccn4)c3)CC2)cc1", "Target Entity": "UniProt:P50130", "Label": "true (1)"}
{"Smiles Notation": "c1ccc(N2CCN(Cc3cn(-c4ccccc4)nn3)CC2)cc1", "Target Entity": "UniProt:P50130", "Label": "false (0)"}
{"Smiles Notation": "C1=C(c2ccccc2)CCN(Cc2cnn(-c3ccccc3)c2)C1", "Target Entity": "UniProt:P50130", "Label": "true (1)"}

Next, consider the following compound.
Can `Fc1ccccc1N1CCN(Cc2cnn(-c3ccccc3)c2)CC1` be said to have pKi at or above 5?
true (1)

====

Target: D(2) dopamine receptor (Homo sapiens)
Assay: Intrinsic activity against dopamine D2(short) receptor expressed in CHO cells by GTPgammaS assay
Format: functional, cell-based
Readout Kind: EC50

Which value of EC50 has been reported for `C1=C(c2ccccc2)CCN(Cc2cnn(-c3ccccc3)c2)C1` in the records?
32 nM

====

Item-by-item account of pKi
Target: D(2) dopamine receptor (Homo sapiens, UniProt P14416)
Sequence (P14416 whole entry): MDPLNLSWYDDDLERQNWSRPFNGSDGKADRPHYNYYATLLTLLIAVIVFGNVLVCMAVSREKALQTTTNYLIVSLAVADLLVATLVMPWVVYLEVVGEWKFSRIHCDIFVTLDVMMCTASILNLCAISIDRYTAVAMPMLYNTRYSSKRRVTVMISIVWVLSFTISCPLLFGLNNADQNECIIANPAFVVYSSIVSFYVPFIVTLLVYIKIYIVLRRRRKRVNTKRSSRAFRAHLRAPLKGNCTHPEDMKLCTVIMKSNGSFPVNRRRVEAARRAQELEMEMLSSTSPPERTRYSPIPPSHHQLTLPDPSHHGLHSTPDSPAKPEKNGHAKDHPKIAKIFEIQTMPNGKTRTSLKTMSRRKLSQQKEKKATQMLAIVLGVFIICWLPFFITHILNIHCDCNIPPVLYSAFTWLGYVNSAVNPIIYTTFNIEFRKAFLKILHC
Test: Displacement of [3H]spiperone from human cloned dopamine D2(short) receptor expressed in CHO cells
Format: cell-based
Details: read-out: Ki
Expect pKi as a plain number equal to -log10 of the molar concentration.

Some solved entries appear below for comparison.
{"Smiles Notation": "COc1ccccc1N1CCN(Cc2cn(-c3ccccc3)nn2)CC1", "pKi": 7.19}
{"Smiles Notation": "C1=C(c2ccccc2)CCN(Cc2cnn(-c3ccccc3)c2)C1", "pKi": 7.55}
{"Smiles Notation": "c1ccc(N2CCN(Cc3cnn(-c4ccccn4)c3)CC2)cc1", "pKi": 6.72}
{"Smiles Notation": "c1ccc(-n2cc(CN3CCN(c4ncccn4)CC3)cn2)cc1", "pKi": 4.85}
{"Smiles Notation": "COc1ccccc1N1CCN(Cc2cnn(-c3ccccc3)c2)CC1", "pKi": 8.10}

Given the molecule `Fc1ccc(N2CCN(Cc3cnn(-c4ccccc4)c3)CC2)cc1` , what is its reported pKi?
6.40

Which value of pKi has been reported for `Cc1c(CN2CCN(c3ccccc3)CC2)cnn1-c1ccccc1` in the records?
6.60

GET /values?readout=pKi&item= `c1ccc(N2CCN(Cc3ccc(-n4cccn4)cc3)CC2)cc1`
5.62

Reported pKi for `COc1ccccc1N1CCN(Cc2cnn(-c3ccccn3)c2)CC1` : what is it?
7.51

Consider the molecule `C1=C(c2ccccc2)CCN(Cc2cn(-c3ccccc3)nn2)C1` and give its measured pKi.
6.96

# pKi lookup, item `c1ccc(N2CCN(Cc3cnn(-c4ccccc4)c3)CC2)cc1`
7.12

Any idea what pKi was measured for `Fc1ccccc1N1CCN(Cc2cnn(-c3ccccc3)c2)CC1` ?
7.43

Which pKi value belongs to `c1ccc(N2CCN(Cc3cn(-c4ccccc4)nn3)CC2)cc1` ?
6.07

# pKi lookup, item `Cc1nn(-c2ccccc2)cc1CN1CCN(c2ccccc2)CC1`
7.37
